Listed here: items and their measured pIC50.
System: KYSE-150 esophageal carcinoma cell line
ASSAY DETAILS: In vitro cell-based assay: cellular proliferation via BrdU incorporation (ELISA)
Set-up: species or system human
ASSAY SETUP: Homo sapiens, KYSE-150, 168 hours compound incubation
pIC50: −log10 of the molar value.
QUANTITY KIND: pIC50

MOLECULE	TARGET SYSTEM	VALUE OBSERVED
CN(c1ccc(N2CC(O)C2)cc1)c1ccc2c(c1)CCC[C@H]2CNc1cnccc1C(=O)O [Example 200]	KYSE-150 esophageal carcinoma cell line	6.00 to 7.00
COc1cc2c(cc1C)C(CNc1cnccc1C(=O)O)CCC2 (stereo not shown) [Example 94]	KYSE-150 esophageal carcinoma cell line	6.00 to 7.00
Cc1ccc(Oc2ccc3c(c2)CCC[C@H]3CNc2cnccc2C(=O)O)c(F)c1 [Example 66]	KYSE-150 esophageal carcinoma cell line	≥ 7.00
CCOc1ccc(N(C)c2ccc3c(c2)OCC[C@H]3CNc2cnccc2C(=O)O)cc1 [Example 186]	KYSE-150 esophageal carcinoma cell line	≥ 7.00
